experimental system: T1, rat NMUR1-TTG (rat, UniProt Q9JJI5 1-425)
T1 construct: whole, on cells; Cell line with the start codon (TTG) as predicted from genomic databases; also called rat R1-TTG
T1 sequence (looked up): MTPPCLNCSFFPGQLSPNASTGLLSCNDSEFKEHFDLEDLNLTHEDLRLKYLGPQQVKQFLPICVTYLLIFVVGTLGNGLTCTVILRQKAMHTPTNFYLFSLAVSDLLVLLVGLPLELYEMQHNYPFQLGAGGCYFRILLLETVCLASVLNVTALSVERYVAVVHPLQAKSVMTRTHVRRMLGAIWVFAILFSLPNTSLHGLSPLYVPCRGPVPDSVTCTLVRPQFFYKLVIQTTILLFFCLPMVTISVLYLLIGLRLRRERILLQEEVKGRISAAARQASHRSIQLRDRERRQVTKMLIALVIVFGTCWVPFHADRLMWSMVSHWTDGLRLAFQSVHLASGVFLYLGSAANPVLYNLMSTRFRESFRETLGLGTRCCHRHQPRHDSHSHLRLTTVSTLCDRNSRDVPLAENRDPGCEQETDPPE
assay name: 125I-hNMU-25 displacement, cell membranes
No end group written: not given here.
reported property: IC50 (nM)
Give bare numbers, in nM.

input: IC50 for FRVDEEFQSPFASQSRGYFLFRPRN-NH2 (also called hNMU-25; native hNMU) [human NMU-25] ?
output: 0.2
